Molecular target: monoacylglycerol lipase (MAGL), mouse brain (Mus musculus, UniProt O35678)
Sequence (O35678 1-303): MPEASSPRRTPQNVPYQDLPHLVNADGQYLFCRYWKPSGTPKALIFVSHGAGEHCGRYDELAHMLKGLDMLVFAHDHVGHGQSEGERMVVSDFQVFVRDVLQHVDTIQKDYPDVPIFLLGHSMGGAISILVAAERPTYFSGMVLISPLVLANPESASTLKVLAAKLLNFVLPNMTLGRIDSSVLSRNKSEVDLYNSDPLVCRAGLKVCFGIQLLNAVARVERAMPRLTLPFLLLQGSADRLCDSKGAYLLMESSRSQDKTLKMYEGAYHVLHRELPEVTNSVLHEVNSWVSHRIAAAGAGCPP
measured endpoint: pKd
Please report pKd as the negative decimal logarithm of the molar concentration, giving only the number.

Query :: Give monoacylglycerol lipase (MAGL), mouse brain (Mus musculus, UniProt O35678) pKd for `Cc1ccnc(F)c1-c1cccc(N2C[C@H](N3CCN(C(=O)c4nccs4)CC3)CC2=O)c1`
Result :: 8.24

Where do these numbers come from? They come from paper doi:10.1101/2025.06.24.661388v1.
